// provenance: patent US20250115612A1

Target: UniProtKB P43220
Assay: EndoC cAMP accumulation assay (HTRF, EndoC-βH1 cells)
Conditions: EndoC-βH1 human pancreatic β cell line
Endpoint: log10 of EC50 (log10 of the value in µM)
Recall that a logarithmic scale is used here: each number is log10 of EC50 in µM.

Some compounds with recorded log10 of EC50:
Compound | log10 of EC50
Cc1ccnc(Cn2c(CN3CCN(c4cccc(OCc5ccc(C#N)cc5F)n4)[C@@H]4CC[C@@H]43)nc3ccc(C(=O)O)cc32)c1 (racemic) [Example 14] | 0.45
N#Cc1ccc(COc2cccc(N3CCN(Cc4nc5ccc(C(=O)O)c(Cl)c5n4C[C@@H]4CCO4)[C@H]4CC[C@H]43)n2)c(F)c1 (single isomer, unassigned) [Example 8b] | -1.39
O=C(O)c1ccc2nc(CN3CCN(c4cccc(OCc5ccc(Cl)cc5F)n4)[C@@H]4COC[C@@H]43)n(C[C@@H]3CCO3)c2c1 (racemic) [Example 15] | -1.85
O=C(O)c1cc(F)c2nc(CN3CCN(c4cccc(OCc5ccc(Cl)cc5F)n4)[C@@H]4COC[C@@H]43)n(C[C@H]3CCOC3)c2c1 (single isomer, unassigned) [Example 18b] | -1.82
N#Cc1ccc(COc2cccc(N3CCN(Cc4nc5cc(Cl)c(C(=O)O)cc5n4C[C@@H]4CCO4)[C@H]4CC[C@H]43)n2)c(F)c1 (single isomer, unassigned) [Example 7b] | -1.40

Moving on to the next compound.
// log10 of EC50 (UniProtKB P43220) for N#Cc1ccc(COc2cccc(N3CCN(Cc4nc5c(Cl)cc(C(=O)O)cc5n4C[C@@H]4CCO4)[C@H]4CC[C@H]43)n2)c(F)c1 (single isomer, unassigned) [Example 6d] = -2.62

* * *

Items are presented alongside their recorded pIC50.
Molecular target: human phosphodiesterase-3A (Homo sapiens, UniProt Q14432)
Sequence (Q14432 whole entry): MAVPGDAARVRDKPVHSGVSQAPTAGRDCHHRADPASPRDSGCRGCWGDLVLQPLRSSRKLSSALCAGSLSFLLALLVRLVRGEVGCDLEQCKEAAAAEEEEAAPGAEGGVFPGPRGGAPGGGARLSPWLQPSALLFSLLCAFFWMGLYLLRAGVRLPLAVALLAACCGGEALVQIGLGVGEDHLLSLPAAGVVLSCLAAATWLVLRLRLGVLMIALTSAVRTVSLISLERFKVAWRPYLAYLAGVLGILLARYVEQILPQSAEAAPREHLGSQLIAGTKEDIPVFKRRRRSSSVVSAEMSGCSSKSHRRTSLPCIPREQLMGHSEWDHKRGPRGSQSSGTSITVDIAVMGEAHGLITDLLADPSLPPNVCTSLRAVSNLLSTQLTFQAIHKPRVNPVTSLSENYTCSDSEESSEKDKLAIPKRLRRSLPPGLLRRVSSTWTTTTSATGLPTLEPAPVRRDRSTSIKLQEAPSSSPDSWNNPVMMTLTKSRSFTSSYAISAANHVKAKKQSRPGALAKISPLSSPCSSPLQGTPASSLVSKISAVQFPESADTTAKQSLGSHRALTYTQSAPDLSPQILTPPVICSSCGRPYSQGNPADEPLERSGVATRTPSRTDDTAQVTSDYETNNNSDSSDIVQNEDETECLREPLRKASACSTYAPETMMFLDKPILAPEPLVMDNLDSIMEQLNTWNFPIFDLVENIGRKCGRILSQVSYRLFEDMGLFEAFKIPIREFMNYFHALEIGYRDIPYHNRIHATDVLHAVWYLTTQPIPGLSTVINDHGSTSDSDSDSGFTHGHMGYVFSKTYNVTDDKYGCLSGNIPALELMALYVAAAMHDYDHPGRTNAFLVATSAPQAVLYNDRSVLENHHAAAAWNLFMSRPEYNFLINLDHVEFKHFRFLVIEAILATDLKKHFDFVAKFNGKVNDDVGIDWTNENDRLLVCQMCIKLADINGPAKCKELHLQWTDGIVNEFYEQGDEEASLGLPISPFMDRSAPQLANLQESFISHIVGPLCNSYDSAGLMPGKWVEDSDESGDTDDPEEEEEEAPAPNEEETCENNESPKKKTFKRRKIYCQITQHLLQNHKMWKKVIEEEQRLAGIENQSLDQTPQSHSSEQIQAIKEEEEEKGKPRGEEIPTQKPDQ
Assay: PDE3 assay (formation of 5'AMP from cAMP, SPA)
Conditions: human recombinant enzyme expressed in Sf9 cells
Note on units: pIC50 is unitless, being -log10 of a concentration expressed in mol/L.

Compound | Target desc | Recorded number
O=C(O)c1cc(F)c2nc(CN3CCN(c4cccc(OCc5ccc(Cl)cc5F)n4)[C@@H]4COC[C@@H]43)n(C[C@@H]3CCO3)c2c1 (single isomer, unassigned) [Example 19a] | human phosphodiesterase-3A (Homo sapiens, UniProt Q14432) | 4.66

For record N#Cc1ccc(COc2cccc(N3CCN(Cc4nc5c(Cl)cc(C(=O)O)cc5n4C[C@@H]4CCO4)[C@H]4CC[C@H]43)n2)c(F)c1 (single isomer, unassigned) [Example 6d] the listed pIC50 is 5.52

For record N#Cc1ccc(COc2cccc(N3CCN(Cc4nc5c(Cl)cc(C(=O)O)cc5n4C[C@@H]4CCO4)[C@H]4CC[C@H]43)n2)c(F)c1 (single isomer, unassigned) [Example 6c] the listed pIC50 is 5.60

For record COc1cc(C(=O)O)cc2c1nc(CN1CCN(c3cccc(OCc4ccc(C#N)cc4F)n3)[C@H]3CC[C@@H]31)n2C[C@@H]1CCO1 (single isomer, unassigned) [Example 4a] the listed pIC50 is 5.42

* * *

Molecular target: GLP-1R (Homo sapiens, UniProt P43220)
Sequence (P43220 24-463): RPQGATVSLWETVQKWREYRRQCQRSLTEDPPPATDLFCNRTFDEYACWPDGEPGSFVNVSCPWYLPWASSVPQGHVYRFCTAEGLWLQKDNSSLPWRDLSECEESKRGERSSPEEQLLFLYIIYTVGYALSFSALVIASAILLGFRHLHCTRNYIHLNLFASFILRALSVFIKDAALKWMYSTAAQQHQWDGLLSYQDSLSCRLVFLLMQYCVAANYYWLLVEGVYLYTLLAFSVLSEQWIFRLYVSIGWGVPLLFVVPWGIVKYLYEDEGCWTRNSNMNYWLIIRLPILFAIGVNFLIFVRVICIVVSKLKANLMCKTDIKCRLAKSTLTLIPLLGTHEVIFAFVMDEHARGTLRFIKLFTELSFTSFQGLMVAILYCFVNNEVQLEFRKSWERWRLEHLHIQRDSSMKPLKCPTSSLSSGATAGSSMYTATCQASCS
Assay: EndoC cAMP accumulation assay (HTRF, EndoC-βH1 cells)
Conditions: EndoC-βH1 human pancreatic β cell line
Endpoint: EC50 (nM)
Reply numerically in nM, unit not repeated.

Some compounds with recorded EC50:
Compound | Recorded number
O=C(O)c1cc(Cl)c2nc(CN3CCN(c4cccc(OCc5ccc(Cl)cc5F)n4)[C@@H]4COC[C@@H]43)n(C[C@@H]3CCO3)c2c1 (single isomer, unassigned) [Example 22a] | 6.6
CCn1cncc1Cn1c(CN2CCN(c3cccc(OCc4ccc(Cl)cc4F)n3)[C@H]3CC[C@@H]32)nc2c(OC)cc(C(=O)O)cc21 (single isomer, unassigned) [Example 12b] | 16

Moving on to the next compound.
// EC50 (GLP-1R (Homo sapiens, UniProt P43220)) for N#Cc1ccc(COc2cccc(N3CCN(Cc4nc5ccc(C(=O)O)cc5n4C[C@@H]4CCO4)[C@H]4CC[C@H]43)n2)c(F)c1 (single isomer, unassigned) [Example 2b] = 32
